Target: THR alpha-LBD (Homo sapiens)
Construct: except that THR alpha-LBD of a final concentration 0.25 nM was used; purchased Invitrogen PV4687
Sequence (P10827 163-410 isoform P10827-2 limits assumed, other chains not shown): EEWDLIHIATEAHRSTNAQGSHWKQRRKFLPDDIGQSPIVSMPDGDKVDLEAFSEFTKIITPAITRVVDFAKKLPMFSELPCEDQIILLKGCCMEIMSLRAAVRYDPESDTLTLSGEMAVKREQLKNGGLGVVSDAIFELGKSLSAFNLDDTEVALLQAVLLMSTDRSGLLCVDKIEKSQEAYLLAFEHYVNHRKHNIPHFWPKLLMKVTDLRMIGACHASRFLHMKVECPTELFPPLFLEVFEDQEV
Test: THR-α Coactivator Peptide Recruitment Assay (LanthaScreen TR-FRET)
Type: biochemical
Conditions: TR-FRET coactivator recruitment, THR alpha-LBD 0.25 nM; read-out: THRα EC50
pEC50: −log10 of the molar value.
READOUT_TYPE: pEC50

>>> reported_value("COCC1(NS(=O)(=O)c2cc(Oc3c(Cl)cc(-n4nc(C(F)F)c(=O)[nH]c4=O)cc3Cl)ncc2O)CC1")
"< 6.00"
>>> reported_value("O=c1[nH]c(=O)n(-c2cc(Cl)c(Oc3cnc(O)c(S(=O)(=O)NC4CCC4)c3)c(Cl)c2)nc1C(F)F")
"< 6.00"
>>> reported_value("O=C(C1CC1)N1CCN(S(=O)(=O)c2cc(Oc3c(Cl)cc(-n4nc(C(F)F)c(=O)[nH]c4=O)cc3Cl)ccc2O)CC1")
"6.70 to 8.70"
>>> reported_value("O=c1[nH]c(=O)n(-c2cc(Cl)c(Oc3ccc(O)c(S(=O)(=O)N[C@@H]4CC[C@H](O)C4)c3)c(Cl)c2)nc1C(F)F")
"6.70 to 8.70"
>>> reported_value("O=c1[nH]c(=O)n(-c2cc(Cl)c(Oc3ccc(O)c(S(=O)(=O)N4CCC(O)CC4)c3)c(Cl)c2)nc1C(F)F")
"6.70 to 8.70"
>>> reported_value("O=c1[nH]c(=O)n(-c2cc(Cl)c(Oc3ccc(O)c(S(=O)(=O)NC4C[S+]([O-])C4)c3)c(Cl)c2)nc1C(F)F (stereo not shown)")
"6.00 to 6.70"
>>> reported_value("CS(=O)(=O)c1cc(Oc2c(Cl)cc(-n3nc(C#N)c(=O)[nH]c3=O)cc2Cl)ncc1O")
"6.00 to 6.70"
>>> reported_value("O=C(CNS(=O)(=O)c1cc(Oc2c(Cl)cc(-n3nc(C(F)F)c(=O)[nH]c3=O)cc2Cl)ccc1O)NCC(F)F")
"6.00 to 6.70"
>>> reported_value("N#CC12CC(NS(=O)(=O)c3cc(Oc4c(Cl)cc(-n5nc(C(F)F)c(=O)[nH]c5=O)cc4Cl)ccc3O)(C1)C2")
"6.70 to 8.70"
>>> reported_value("O=C(NC1CC1)C1(NS(=O)(=O)c2cc(Oc3c(Cl)cc(-n4nc(C(F)F)c(=O)[nH]c4=O)cc3Cl)ncc2O)CCC1")
"< 6.00"
>>> reported_value("O=c1[nH]c(=O)n(-c2cc(Cl)c(Oc3ccc(O)c(S(=O)(=O)NC4CC5(CC(O)C5)C4)c3)c(Cl)c2)nc1C(F)F (stereo not shown)")
"6.00 to 6.70"
>>> reported_value("CS(=O)(=O)[C@H]1C[C@H](NS(=O)(=O)c2cc(Oc3c(Cl)cc(-n4nc(C(F)F)c(=O)[nH]c4=O)cc3Cl)ccc2O)C1")
"< 6.00"
>>> reported_value("N#Cc1cc(O)c(S(=O)(=O)N[C@H]2C[C@H](O)C2)cc1Oc1c(Cl)cc(-n2nc(C(F)F)c(=O)[nH]c2=O)cc1Cl")
"< 6.00"
